FYI, the data here is from PubChem BioAssay (NCATS).

- assayNotes: Cell Viability - LYMP2-020 (AID 986);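 further: cells exposed to compound for 24 h at 37 °C; nearly all actives have a fitted effect of over 55% in size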
- condition: series mostly up to 92.2 µM
Inconclusive results are not listed. Active and inactive are the calls of the source. The call rests on the fitted dose curve; in most records, active means well fitted cell-killing curve with a large enough effect; inconclusive means small, poorly fitted or top-dose-only effect; inactive means flat fitted curve, though single readings scatter. Numbered stars: 1 amine (or outer) side, 2 acyl side, 3 side chain; on linkers, the order of the positions; unused ones are H or OH. Bridge positions count the residues as written; N and C are the ends. Square brackets hold non-standard residues; d marks the D form. Peptide text beside a SMILES is read from it. I, II: the chains in the order shown. Actinocin(9to1) = Cc1c2oc3c(C)ccc(C(=O)[*:1])c3nc-2c(C(=O)[*:2])c(N)c1=O; NMeV = CN[C@H](C(=O)O)C(C)C; Sar = CNCC(=O)O
Entry note: the call must match one of active, inactive

Take a look at these entries with their results.
# compound, groupLabel
rows = [
    ("Cc1c2oc3c(C)ccc(C(=O)N[C@@H]4C(=O)N[C@H](C(C)C)C(=O)N5CCC[C@H]5C(=O)N(C)CC(=O)N(C)[C@@H](C(C)C)C(=O)O[C@@H]4C)c3nc-2c(C(=O)N[C@@H]2C(=O)N[C@H](C(C)C)C(=O)N3CCC[C@H]3C(=O)N(C)CC(=O)N(C)[C@@H](C(C)C)C(=O)O[C@@H]2C)c(N)c1=O (I: T[dV]P[Sar][NMeV] / II: T[dV]P[Sar][NMeV]; ester I:1-I:C, II:1-II:C; linker I:N-II:N via Actinocin(9to1))", "active"),
    ("C[C@]12CC[C@@H]3c4ccc(O)cc4CC[C@H]3[C@@H]1CC[C@@H]2O", "inactive"),
    ("CCCCCCc1ccc(O)cc1O", "inactive"),
    ("COc1cccc2c1C(=O)c1c(O)c3c(c(O)c1C2=O)C[C@@](O)(C(C)=O)C[C@@H]3O[C@H]1C[C@H](N)[C@H](O)[C@H](C)O1", "active"),
    ("CC/C(=C(/CC)c1ccc(O)cc1)c1ccc(O)cc1", "inactive"),
]

Attention now turns to another entry.
Req: Hey, what did the test say about COc1cccc2c1C(=O)c1c(O)c3c(c(O)c1C2=O)C[C@@](O)(C(=O)CO)C[C@@H]3O[C@H]1C[C@H](N)[C@H](O)[C@H](C)O1 ?
Resp: active
